Across several studies, compounds have been characterized by their IC50 on Proto-oncogene tyrosine-protein kinase receptor Ret (Homo sapiens, UniProt P07949); a selection follows.

Return value of IC50 for input CO[C@]1(C(=O)N[C@@H](C)c2ccc(-n3cc(F)cn3)nc2)CC[C@H](c2nc(Nc3cc(C)[nH]n3)cnc2C#N)CC1 , no commentary. 0.00208 µM

Return value of IC50 for input O=C(c1cccc(Cl)c1Cl)c1c[nH]c2nccc(-c3cccnc3)c12 , no commentary. ≤ 10 µM

Return value of IC50 for input Cn1cc(-c2cc(-c3ccc(N4C[C@@H]5[C@H](C4)[C@@H]5NS(=O)(=O)c4c(F)cccc4Cl)nc3)c3c(C#N)cnn3c2)cn1 , no commentary. ≤ 0.01 µM

Return value of IC50 for input Cc1cc(Nc2cc(C3CC3)[nH]n2)nc([C@@]2(O)CC[C@H](C(=O)NCc3ccccc3)C2)c1 , no commentary. 0.01 to 0.1 µM

* * *

Across several studies, compounds have been characterized by their IC50 on Proto-oncogene tyrosine-protein kinase receptor Ret (Homo sapiens, UniProt P07949); a selection follows.

Return value of IC50 for input Cc1cc(Nc2cc(C)[nH]n2)nc([C@]2(F)C[C@](C)(C(=O)N[C@@H](C)c3ccc(-n4cc(F)cn4)nc3)C2)c1 , no commentary. < 100 nM

Return value of IC50 for input COc1ccc(C(=O)N[C@H]2[C@@H]3CN(c4ccc(-c5cc(-c6cnn(C)c6)cn6ncc(C#N)c56)cc4)C[C@@H]32)cn1 , no commentary. 10 to 50 nM

Return value of IC50 for input COC1(C(=O)NCc2ccc(-n3nc(C)cc3C)nc2)CCN(c2cc(C)cc(Nc3cc(C)[nH]n3)n2)CC1 , no commentary. < 10 nM

Return value of IC50 for input Cc1ccc(F)cc1C(=O)c1c[nH]c2ncc(-c3cccnc3)cc12 , no commentary. ≤ 10000 nM

Return value of IC50 for input CCNCc1cncc(-c2cnc3[nH]nc(-c4nc5c(COC)cccc5[nH]4)c3c2)c1 , no commentary. 7630 nM

Return value of IC50 for input Fc1ccc(-c2c(CSCc3ccco3)[nH]c3ncccc23)cc1 , no commentary. ≤ 10000 nM

Return value of IC50 for input CO[C@]1(C(=O)N[C@@H](C)c2ccc(-n3cc(F)cn3)nc2)C[C@](O)(c2cc(C)cc(Nc3cc(C)[nH]n3)n2)C1 , no commentary. < 1 nM

Return value of IC50 for input CCOc1cc(-c2ccc(NC(=O)Nc3ccc(CN4CCN(CC)CC4)c(C(F)(F)F)c3)c(C(F)F)c2)c[nH]c1=O , no commentary. < 100 nM

Return value of IC50 for input Cc1cc(Nc2cc(C)[nH]n2)nc([C@H]2CC[C@H](C(=O)N[C@@H](C)c3ccc(-n4cccn4)nc3)CC2)n1 , no commentary. < 10 nM

Return value of IC50 for input CCOc1cc(-c2ccc(NC(=O)Nc3ccc(OC(C)C)c(C(F)(F)F)c3)nc2C)c[nH]c1=O , no commentary. < 100 nM

Return value of IC50 for input Cc1nc(-c2c[nH]c(=O)c3occc23)ncc1NC(=O)Nc1cnc(C(C)(C)O)c(C(F)(F)F)c1 , no commentary. < 100 nM

Return value of IC50 for input CCOc1cc(-c2cnc(N3C4CC5CC3CC(N)(C5)C4)cn2)c2c(C#N)cnn2c1 , no commentary. 10 to 50 nM

Return value of IC50 for input COCc1cccc2[nH]c(-c3n[nH]c4ncc(-c5cncc(CN6CCOCC6)c5C)cc34)nc12 , no commentary. > 10000 nM

Return value of IC50 for input CO[C@]1(C(=O)N[C@@H](C)c2ccc(-n3cc(F)cn3)nc2)C[C@H](c2cc(C)cc(Nc3cc(C)[nH]n3)n2)C1 , no commentary. < 1 nM

Return value of IC50 for input CC1(Oc2ccc(NC(=O)Nc3ccc(-c4ccc(=O)[nH]c4)cc3)cc2C(F)F)COC1 , no commentary. < 100 nM

* * *

pIC50: −log10 of the molar value.
Across several studies, compounds have been characterized by their pIC50 on UniProt:P07949; a selection follows.

Return value of pIC50 for input CCOc1cc(-c2ccc(CC(=O)Nc3cc(OCCN(C)C)cc(C(F)(F)F)c3)c(F)c2)c[nH]c1=O , no commentary. > 7.00

Return value of pIC50 for input O=C(c1ccc(O)cc1Cl)c1c[nH]c2ncc(Br)cc12 , no commentary. ≥ 5.00

Return value of pIC50 for input CCOc1cc(-c2ncc(NC(=O)Nc3ccc(C(C)N)c(C(F)(F)F)c3)c(C)n2)c[nH]c1=O (stereo not shown) , no commentary. > 7.00

Return value of pIC50 for input Cc1cc(Nc2cc(C)[nH]n2)nc(N2CC(C(=O)N(C)[C@@H](C)c3ccc(-n4cc(F)cn4)nc3)C2)n1 , no commentary. > 8.00

Return value of pIC50 for input Cc1cc(Nc2cc(C)[nH]n2)nc(N2CC[C@H](C(=O)NCc3ccc(-n4cccn4)nc3)[C@@H](O)C2)c1 , no commentary. > 8.00

Return value of pIC50 for input CCOc1ccc(NC(=O)Nc2ccc(-c3c[nH]c(=O)c(OCC)c3)cc2F)cc1C(F)(F)F , no commentary. > 7.00

Return value of pIC50 for input CN1CCN(c2ccc3[nH]c(-c4n[nH]c5ncc(-c6cncc(CN7CCOCC7)c6)cc45)nc3c2)CC1 , no commentary. < 6.00

* * *

Across several studies, compounds have been characterized by their IC50 on UniProt P07949; a selection follows.

Return value of IC50 for input COC1(C(=O)NCc2ccc(-n3cccn3)nc2)CCN(c2cc(C)cc(Nc3cc(C)[nH]n3)n2)CC1 , no commentary. < 10 nM

Return value of IC50 for input CCOc1cc(=O)[nH]cc1-c1ncc(NC(=O)Nc2ccc(C(C)(C)C(N)=O)c(C(F)(F)F)c2)c(C)n1 , no commentary. < 100 nM

Return value of IC50 for input Oc1cccc(C(O)c2c[nH]c3ncc(-c4cccs4)cc23)c1 (stereo not shown) , no commentary. ≤ 10000 nM

Return value of IC50 for input Cc1ccc(F)cc1C(=O)c1c[nH]c2ncc(-c3cccc(N)c3)cc12 , no commentary. ≤ 10000 nM

Return value of IC50 for input CC(C)Oc1ccc(NC(=O)Nc2ccc(-c3ccc(=O)[nH]c3)cc2)cc1C(F)(F)F , no commentary. < 100 nM

Return value of IC50 for input Cc1cc(Nc2cc(C(F)F)cc(N3CC(F)(C(=O)N[C@@H](C)c4ccc(-n5cc(F)cn5)nc4)C3)n2)n[nH]1 , no commentary. < 10 nM

Return value of IC50 for input COc1ccc([C@H](C)NC(=O)C2(O)CCN(c3nc(C)cc(Nc4cc(C)[nH]n4)n3)CC2)cc1 , no commentary. > 100 nM

* * *

Across several studies, compounds have been characterized by their IC50 on Proto-oncogene tyrosine-protein kinase receptor Ret (Homo sapiens, UniProt P07949); a selection follows.

Look up and report measured IC50 (Proto-oncogene tyrosine-protein kinase receptor Ret (Homo sapiens, UniProt P07949)) for the following compound: CCOc1cc(-c2ccc(NC(=O)Nc3ccc(CN4CC[C@H](F)C4)c(C(F)(F)F)c3)c(F)c2)c[nH]c1=O < 100 nM

Look up and report measured IC50 (Proto-oncogene tyrosine-protein kinase receptor Ret (Homo sapiens, UniProt P07949)) for the following compound: O=C(c1c(F)ccc(O)c1F)c1c[nH]c2ncc(-c3cccnc3)cc12 ≤ 10000 nM

Look up and report measured IC50 (Proto-oncogene tyrosine-protein kinase receptor Ret (Homo sapiens, UniProt P07949)) for the following compound: CCOc1cc(-c2ccc(NC(=O)Nc3ccc(CC(C)(C)C#N)c(C(F)(F)F)c3)c(F)c2)c[nH]c1=O < 100 nM

Look up and report measured IC50 (Proto-oncogene tyrosine-protein kinase receptor Ret (Homo sapiens, UniProt P07949)) for the following compound: CCOc1cc(-c2ccc(NC(=O)Nc3ccc(C(C)O)c(C(F)(F)F)c3)c(F)c2)c[nH]c1=O (stereo not shown) < 100 nM

Look up and report measured IC50 (Proto-oncogene tyrosine-protein kinase receptor Ret (Homo sapiens, UniProt P07949)) for the following compound: Cc1c(NS(C)(=O)=O)cccc1C(=O)c1c[nH]c2ncc(-c3ccccc3)cc12 ≤ 10000 nM

Look up and report measured IC50 (Proto-oncogene tyrosine-protein kinase receptor Ret (Homo sapiens, UniProt P07949)) for the following compound: CCOc1cc(-c2cnc(NC(=O)Nc3ccc(OC4(C)COC4)c(C(F)(F)F)c3)c(C)c2)c[nH]c1=O < 100 nM

Look up and report measured IC50 (Proto-oncogene tyrosine-protein kinase receptor Ret (Homo sapiens, UniProt P07949)) for the following compound: Cc1cc(N2CCC(CC#N)(C(=O)N[C@@H](C)c3ccc(-n4cc(F)cn4)nc3)CC2)nc(Nc2cc(C)[nH]n2)n1 < 10 nM
